# EC50 annotations
Biological target: T1, 表达于CHOK1细胞表面的人TIGIT (CHOK1/人TIGIT细胞, 吉满生物 GM-C01116) (human, UniProt Q495A1 22-244)
T1 construct: whole, on cells; Purchased cell line; also called CHOK1/hTIGIT
T1 sequence (looked up): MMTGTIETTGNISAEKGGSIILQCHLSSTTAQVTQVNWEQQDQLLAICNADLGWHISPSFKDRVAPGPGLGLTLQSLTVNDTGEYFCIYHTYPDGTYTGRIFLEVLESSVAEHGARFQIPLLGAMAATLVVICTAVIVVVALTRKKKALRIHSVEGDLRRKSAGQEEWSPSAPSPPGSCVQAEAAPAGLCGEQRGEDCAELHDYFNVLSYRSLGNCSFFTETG
Assay: flow cytometry competition, EC50 of % inhibition of Biotinylated-CD155 (0.6μg/ml) binding to CHOK1/hTIGIT cells
Just the number in µg/mL, nothing appended.

1. 人源化抗TIGIT抗体A2 (antibody, human IgG1, kappa, V domains shown, Humanized) VH: QLQLVQSGAEVKKPGASVKVSCKASGYSFTDYNMNWVRQAPGQSLEWIGVINPNHGTISYNQKFKGRVTMTRDQSTSTAYMELNSLRSEDTAVYYCANNWDVWYFDVWGQGTLVTVSS VL: DIQMTQSPSSLSASVGDRVTITCRPSENIYSYLAWYQQKPGKAPKLLVYNAKALAEGVPSRFSGSGSGTDFTLTISSLQPEDFATYYCQHHFGAPWTFGQGTKVEIKR	0.406

Now examine the next entry.
Problem: Item 人源化抗TIGIT抗体A3 (antibody, human IgG1, kappa, V domains shown, Humanized) VH: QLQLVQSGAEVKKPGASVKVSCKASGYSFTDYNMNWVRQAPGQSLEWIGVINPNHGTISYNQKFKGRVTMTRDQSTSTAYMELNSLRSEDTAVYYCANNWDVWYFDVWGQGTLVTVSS VL: DIQMTQSPSSLSASVGDRVTITCRPSENIYSYLAWYQQKPGNAPKLLVYNAKALAEGVPSRFSGSGSGTQFTLTISSLQPEDFATYYCQHHFGAPWTFGQGTKVEIKR has what recorded EC50?
Result: 0.427

Attribution: patent CN114907476A
